Hey, just so you know, these numbers are from the METLIN SMRT retention time set (Domingo-Almenara et al. 2019).

Field: RP-LC retention time. Provide a value for each of the compounds that follow.
Test: gradient 5% acetonitrile 3 min, to 50% in 2 min, to 85% in 15 min, held 3 min, 100 µL/min
Settings: column: Zorbax Extend-C18 2.1 x 50 mm; eluents: water / acetonitrile, 0.1% formic acid
Answers are plain numbers, in s.

For each listed entry, give its RP-LC retention time.
1. CCc1ccc(S(=O)(=O)N2CCC(n3c(-c4ccco4)nc4cccnc43)C2)cc1 (stereo unspecified)
2. Cc1cc(C(=O)Nc2nc3c(s2)CN(C(=O)c2nc4ccccc4s2)CC3)no1

## Result
1. 972
2. 870

Record RP-LC retention time for all entries; do not skip any.
1. Cc1c(C(=O)N2CCOCC2)cc(-c2ccccc2)n1C
2. COc1cccc(CNC(=O)CCc2nnc3c4cc(-c5ccccc5)nn4ccn23)c1
3. COc1ccc(OC)c(CNC(=O)C2CCN(c3nnc(-c4ccccc4)o3)CC2)c1
4. CCOCCCNC(=O)C1CCCN(c2ccc(-c3ccc(C)c(C)c3)nn2)C1 (stereo unspecified)

## Result
616
752
797
687

====

Assay: gradient 5% acetonitrile 3 min, to 50% in 2 min, to 85% in 15 min, held 3 min, 100 µL/min
Settings: column: Zorbax Extend-C18 2.1 x 50 mm; eluents: water / acetonitrile, 0.1% formic acid
Give measured RP-LC retention time for each item. Keep answers brief.
Answers are plain numbers, in s.

Solved cases (2 shown):
## Task Param item = `COc1ccc(Nc2ncccc2S(N)(=O)=O)cc1Cl` ; retrieve measured RP-LC retention time.
## Result 801

## Task And what about the compound `O=C(C1CCN(c2ncnc3c2oc2ccccc23)CC1)N1CCN(c2ccccc2)CC1` ?
## Result 795

Then there is this compound:
## Task Sample Cc1cc(C)c(C(=O)N2CCCC(C(=O)NCCC(C)C)C2)[nH]1 (stereo not drawn) — what was its RP-LC retention time?
## Result 788

====

Can you tell me RP-LC retention time for the items I'm about to list?
Test: gradient 5% acetonitrile 3 min, to 50% in 2 min, to 85% in 15 min, held 3 min, 100 µL/min
Settings: column: Zorbax Extend-C18 2.1 x 50 mm; eluents: water / acetonitrile, 0.1% formic acid
Give bare numbers, in s.

Examples from the recorded data:
## Task RP-LC retention time for Cc1cc2c(cc1S(=O)(=O)N1CCCC1C(=O)Nc1ccc(C(C)C)cc1)OCC(=O)N2 (stereo not given) ?
## Result 902

## Task Ok, now `CCCN1CCCCc2cc(C(=O)N(C)CC(=O)NC)sc21`
## Result 791

## Task Same lookup for `Cn1nc2c(c1NC(=O)C1(c3ccc(Cl)cc3)CCCC1)CCC2` , please.
## Result 907

## Task Next compound: `Cc1cccc(C)c1NC(=O)Cn1ncc2c(c1=O)N(CC1CC1)C(=O)CS2`
## Result 784

# next compound below
## Task Requested read-out: RP-LC retention time. Entry: `O=C(NCC1CCN(C(=O)c2ccccc2F)CC1)c1ccc(Cl)s1`
## Result 781

====

Experiment: gradient 5% acetonitrile 3 min, to 50% in 2 min, to 85% in 15 min, held 3 min, 100 µL/min
Conditions: column: Zorbax Extend-C18 2.1 x 50 mm; eluents: water / acetonitrile, 0.1% formic acid
Friendly reminder: RP-LC retention time below 700 s is 1, at or above is 0.

## Task Given the entry `CCc1nnc(-c2nnc(N(CC)CC)c3ccccc23)o1` , would its reported RP-LC retention time be below 700 s?
## Result 0

## Task Query CNC(=O)CN(C)C(=O)C1CCCCc2nnc(C(C)C)n21 (centres undefined) next
## Result 1

## Task Now consider COc1ccc(-c2cc3c(=O)n(Cc4noc(CN5CCCCC5C)n4)ccn3n2)cc1 (centres undefined) and answer again.
## Result 1

## Task Ok, now `CC1CCN(Cc2csc(N3CCN(C(=O)COc4ccccc4)CC3)n2)CC1`
## Result 1

## Task Would you mind doing CCC(C)NC(=O)CSc1nccc(N2CCN(c3cc(C)ccc3C)CC2)n1 (centres undefined) as well?
## Result 0

## Task Another compound to check: `Cc1ccc(NC(=O)Cn2nc(C)cc2C(=O)Nc2ccc3c(c2)OCO3)cc1`
## Result 0

## Task One more compound: `Cc1nc2cc(-c3noc(-c4ccncc4)n3)ccc2n(C2CCCC2)c1=O`
## Result 0

## Task Also `COc1ccc(Cl)cc1Nc1ccnc2c1c(=O)n(C)c(=O)n2C` ?
## Result 0

Moving on to another compound below.
## Task Lab log: compare recorded RP-LC retention time with 700 s; is it strictly lower for `CCN(C(=O)c1ccco1)c1nc(-c2ccccc2)cs1` ?
## Result 0
